System: PfAP2-HC AP2 domain (GST-tagged)
Experiment: gcPBM binding intensity (ln(normalized median fluorescence intensity)); higher = stronger DNA binding
Whole data set: some 25,000 sequences, median “ln(normalized median fluorescence intensity)” near 9.7, cut for the highest 2% near 11. Many of the other results were omitted from the sample, so the highest values are more common in it than they were.
readout.label: gcPBM binding intensity (ln)
Give bare numbers.

These recorded examples may help you get a feel for the data.
- construct.sequence: "TGATCAGATAGACACACACACAAAAAAAAAAAAAAA [CACACA_site7805]"
  gcPBM binding intensity (ln): 10.1
- construct.sequence: "TAATTAAAATCATATACACACCCATATATATATATA [CACACA_site8524]"
  gcPBM binding intensity (ln): 10
- construct.sequence: "ATAAACAATTAACAAACATGCAAATTTTAAATGTGT [TGCATGCA_site919]"
  gcPBM binding intensity (ln): 9.68
- construct.sequence: "AAAAAAAAAAGAACCCGTACATAAATAATATATATA [XGTACX_site164]"
  gcPBM binding intensity (ln): 9.73

Proceeding to the next sequence to report its gcPBM binding intensity (ln).
q: For TAATTACCATATGGTACACACATATATATCTGTATA [CACACA_site5849] , write its gcPBM binding intensity (ln).
a: 9.96

====

Task for the reader: assign each of the following sequences its reported gcPBM binding intensity (ln).
System: PfAP2-HC AP2 domain (GST-tagged)
Assay: gcPBM binding intensity (ln(normalized median fluorescence intensity)); higher = stronger DNA binding
Over roughly 25,000 sequences, “ln(normalized median fluorescence intensity)” has its median near 9.7; the highest 2% begin near 11. What follows is part of a selection rich in the highest values, with near analogues and random picks from the rest.
Give bare numbers.

- construct.sequence: "CATACCTATAGACACACACACACACGCACGCACAAA [CACACA_site6374]"
  target.entity: "PfAP2-HC AP2 domain (GST-tagged)"
  experimental.result: 10.4
- construct.sequence: "CTCATTTTTGTACAGGTGCACTTATCGTTACACTAT"
  target.entity: "PfAP2-HC AP2 domain (GST-tagged)"
  experimental.result: 9.93
- construct.sequence: "ACATATCTATCGTTTTTAATTGTATATTATTATAAC [TGCATGCA_negctrl_site144]"
  target.entity: "PfAP2-HC AP2 domain (GST-tagged)"
  experimental.result: 9.76
- construct.sequence: "ATAATTAACAAATACACACACACACCCCCACAAAAA [CACACA_site518]"
  target.entity: "PfAP2-HC AP2 domain (GST-tagged)"
  experimental.result: 10.9

Proceeding to the next sequence to report its gcPBM binding intensity (ln).
q: For CAATTTTACTCATAAACACACATATAGATGTTATTA [CACACA_site7474] , write its gcPBM binding intensity (ln).
a: 9.6

====

System: PfAP2-HC AP2 domain (GST-tagged)
Assay: gcPBM binding intensity (ln(normalized median fluorescence intensity)); higher = stronger DNA binding
In all, about 25,000 sequences were measured (“ln(normalized median fluorescence intensity)”: median about 9.7, highest 2% from about 11 on). The full list was thinned out, with the highest values kept by preference.
Task for the reader: assign each of the following sequences its reported gcPBM binding intensity (ln).
Numbers only.

These recorded examples may help you get a feel for the data.
- construct.sequence: "TATAATATTATACATAGTACACATCACACATCGCAA [XGTACX_site4650]"
  target.entity: "PfAP2-HC AP2 domain (GST-tagged)"
  gcPBM binding intensity (ln): 9.99
- construct.sequence: "TTTATTCAAATATAATGTACTTTCTACAAATTCAAT [XGTACX_site8119]"
  target.entity: "PfAP2-HC AP2 domain (GST-tagged)"
  gcPBM binding intensity (ln): 9.43
- construct.sequence: "TGGGAGCACAGACACACACACACACCCATATATATA [CACACA_site335]"
  target.entity: "PfAP2-HC AP2 domain (GST-tagged)"
  gcPBM binding intensity (ln): 10.5
- construct.sequence: "TGGGAGCACAGACACACACACACACCGATATATATA [CACACA_site8001]"
  target.entity: "PfAP2-HC AP2 domain (GST-tagged)"
  gcPBM binding intensity (ln): 11.3
- construct.sequence: "ATATATATTTAAACTACACACGCATATCTTAGAAAT [CACACA_site8348]"
  target.entity: "PfAP2-HC AP2 domain (GST-tagged)"
  gcPBM binding intensity (ln): 10.1
- construct.sequence: "ATTTATTTATATTTAGTGCAATACTATTTTTAAATA [GTGCAC_site9886]"
  target.entity: "PfAP2-HC AP2 domain (GST-tagged)"
  gcPBM binding intensity (ln): 9.48

Each sequence below has a recorded value; state its gcPBM binding intensity (ln).
1. AAAGAACAAATAAAACATAAAATAATATATATAGAT [CACACA_negctrl_site1764]
2. AAAAAAAAAAAAAAATGTACAAAAATTACTATAAAA [XGTACX_site7683]
3. GTATCTCATTATTCGTGTACTAAACACATAAAAATA [XGTACX_site2262]
4. ACATTATATAAAATATGTACATATAAAAAATTCTAT [XGTACX_site1617]
5. TTTTGTTGTATGATAATTCTTTTATCAATATGTCTT [TGCATGCA_negctrl_site567]
6. TGCTATTTTTTCCTTTTTTTGTATCACAATCATATA [CACACA_negctrl_site1576]
7. AATAATAAATCAAACTGTACATATATTTTCAATCTA [XGTACX_site3344]

a:
10.1
9.48
9.58
9.77
9.63
9.74
9.61
